%Inh values, listed per item
Test system: PAK3;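 further: KINOMEscan kinase panel screen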
Settings: concentration: 1 μM,replicates: in singlicate; n = 1
Observable: %Inh (%)

> print(dat)
                                   molecule  unit.abbrev  quantitative.readout
1   CC(C)Nc1cc(-c2ccc3c(N)n[nH]c3c2)nc(N)n1            %                     0
2  CN(C)CCOc1ccc(-c2cc(-c3c[nH]nc3-c3ccccn3)ccn2)cc1            %                    24
3  C[C@@H]1CCN(C(=O)CC#N)C[C@@H]1N(C)c1ncnc2[nH]ccc12            %                     1
4  C[C@@H](Oc1cc(-c2cnn(C3CCNCC3)c2)cnc1N)c1c(Cl)ccc(F)c1Cl            %                     0
5  Cl.Cl.Nc1nc(-c2ccc3c(N)n[nH]c3c2)cc(N2CCCC(NC(=O)c3ccccc3)C2)n1 (centres unmarked)            %                     0
